System: Mima polymorpha
Experiment: standard plate dilution method, Mima polymorpha
Type: cell-based
Design: key: +: active; -: inactive
Conditions: agar plates, 1 to 100 milligrams/liter
Experimental: The culture medium employed permits susceptibility testing of fastidious microorganisms towards antibiotics, sulfonamides and other chemotherapeutic agents. Tryptone soy agar (oxoid) of the following composition is the culture medium. In the test procedure, the amount of a compound required to give complete inhibition or no inhibition of the microbial growth on the agar plates was determined. […] The microbial growth on each plate is read visually, and minimal inhibitory concentrations are recorded.
Readout label: Microorganism MP (growth inhibition)

Reference set, count: 4
> print(dat)
                                   compound  result
1  CC1COc2cccc3c(=O)c(C(=O)O)cn1c23 (centres unmarked)       -
2  CC1COc2ccc(F)c3c(=O)c(C(=O)O)cn1c23 (centres unmarked)       -
3  CC1COc2cc(F)cc3c(=O)c(C(=O)O)cn1c23 (centres unmarked)       -
4  Cc1ccc2c3c1c(=O)c(C(=O)O)cn3C(C)CO2 (centres unmarked)       -

# input May I ask what Microorganism MP (growth inhibition) has been recorded for Cc1cc2c3c(c1C)c(=O)c(C(=O)O)cn3C(C)CO2 (centres unmarked) ?
# output +
